# protocol_notes: Isothermal titration calorimetry (ITC)
# Format: binding
# assay_context: 30° C., 50 mM K^+ Hepes pH 7.5, 100 mM KCl, 10 mM MgCl2, read-out: KD for guanine
measured_parameter: pKd
As a rule, pKd stands for the negative log10 of the concentration, concentration in M.

wt: 69-nucleotide full-length wild-type guanine sensing aptamer RNA sequence from xpt-pbuX operon in B. subtilis (SEQ ID NO: 1) (nucleic acid, RNA, backbone and methylation of C not given here) CACUCAUAUAAUCGCGUGGAUAUGGCACGCAAGUUUCUACCGGGCACCGUAAAUGUCCGACUAUGGGUG ... 8.37
m4: m4 mutant guanine sensing aptamer RNA (SEQ ID NO: 5); A59G/U67C in the P3 hairpin (nucleic acid, RNA, backbone and methylation of C not given here, A59G/U67C in the P3 hairpin) CACUCAUAUAAUCGCGUGGAUAUGGCACGCAAGUUUCUACCGGGCGCCGUAAACGUCCGACUAUGGGUG ... 8.44
m2: m2 mutant guanine sensing aptamer RNA (SEQ ID NO: 3); G37A in L2 and C61U in L3 (nucleic acid, RNA, backbone and methylation of C not given here, G37A in L2 and C61U in L3) CACUCAUAUAAUCGCGUGGAUAUAGCACGCAAGUUUCUACCGGGCACUGUAAAUGUCCGACUAUGGGUG ... 7.44
m6: m6 mutant guanine sensing aptamer RNA (SEQ ID NO: 7); U67A, shorter P3 hairpin and larger L3 loop (nucleic acid, RNA, backbone and methylation of C not given here, U67A, shorter P3 hairpin and larger L3 loop) CACUCAUAUAAUCGCGUGGAUAUGGCACGCAAGUUUCUACCGGGCACCGUAAAAGUCCGACUAUGGGUG ... 8.17

So what's the measured pKd for this one? m7: m7 mutant guanine sensing aptamer RNA (SEQ ID NO: 8); U25C in J1/2 (nucleic acid, RNA, backbone and methylation of C not given here) CACUCAUAUAACCGCGUGGAUAUGGCACGCAAGUUUCUACCGGGCACCGUAAAUGUCCGACUAUGGGUG 7.77

Data origin, for the record: patent US11905559B2
